Values compiled from paper PMC13395458.

# TEST_TARGET: hIRE1α LD wild-type (Homo sapiens, UniProt O75460)
# Construct: His6 (N, cleaved yes); made in house; host or cells: Escherichia coli BL21DE3* RIPL
# Sequence (O75460 24-443): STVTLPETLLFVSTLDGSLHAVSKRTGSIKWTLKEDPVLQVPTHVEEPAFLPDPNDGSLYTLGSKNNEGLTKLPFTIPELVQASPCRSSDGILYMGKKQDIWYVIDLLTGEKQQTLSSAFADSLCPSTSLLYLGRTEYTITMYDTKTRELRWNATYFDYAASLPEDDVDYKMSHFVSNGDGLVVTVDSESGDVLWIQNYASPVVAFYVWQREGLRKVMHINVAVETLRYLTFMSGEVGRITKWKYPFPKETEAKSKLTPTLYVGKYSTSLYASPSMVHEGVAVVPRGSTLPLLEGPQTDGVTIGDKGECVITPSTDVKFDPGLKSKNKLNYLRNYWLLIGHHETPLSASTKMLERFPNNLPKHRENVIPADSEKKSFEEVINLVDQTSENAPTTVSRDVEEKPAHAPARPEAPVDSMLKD
# METHOD: Fluorescence anisotropy, binding of labeled MPZ1N-2X to hIRE1α LD WT
# CONDITION: 95% confidence interval of KD, read-out: KD 95% confidence interval
pKd: −log10 of the molar value. Ends that are not written are not given here.
MEASURED_PROPERTY: pKd

item_sequence="LIRYAWLRRQAALQRRLIRYAWLRRQAA [MPZ1N-2X]" test_target="hIRE1α LD wild-type (Homo sapiens, UniProt O75460)" measured_property=pKd result="5.60 to 5.74"
